target: UniProt:P25090; assay: compound-induced calcium activity on FLIPR Tetra in CHO-Ga16 cells stably expressing FPRL1; settings: tested 0.61 to 10,000 nM
Sequence (P25090 whole entry, species assumed): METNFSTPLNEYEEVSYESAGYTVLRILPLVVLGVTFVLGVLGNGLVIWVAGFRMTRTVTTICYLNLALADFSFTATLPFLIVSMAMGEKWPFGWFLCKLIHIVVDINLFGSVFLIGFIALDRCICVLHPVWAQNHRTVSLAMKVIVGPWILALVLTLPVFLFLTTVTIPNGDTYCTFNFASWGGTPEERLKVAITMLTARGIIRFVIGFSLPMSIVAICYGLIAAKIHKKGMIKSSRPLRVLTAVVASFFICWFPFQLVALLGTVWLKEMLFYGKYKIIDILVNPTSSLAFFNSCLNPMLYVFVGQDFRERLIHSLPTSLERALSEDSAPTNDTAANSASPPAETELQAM
Lab note: cut-off is 2 µM. Strictly less in EC50 is label 1. Exactly 2 µM or more is label 0.

| molecule | tgt | label value |
| --- | --- | --- |
| O=C(CN1C(=O)C2C(C1=O)C1C=CC2C12CC2)Nc1ccc(Br)cc1 (centres unmarked) [Compound 12] | UniProt:P25090 | label 1 |
| O=C(CN1C(=O)C2C(C1=O)C1CCC2C12CC2)Nc1ccc(Br)cc1 (centres unmarked) [Compound 1] | UniProt:P25090 | label 1 |
| CC(=O)c1ccc(NC(=O)CN2C(=O)C3C(C2=O)C2CCC3C23CC3)cc1 (centres unmarked) [Compound 7] | UniProt:P25090 | label 0 |
| O=C(CN1C(=O)C2C(C1=O)C1CCC2C12CC2)Nc1ccc(F)cc1 (centres unmarked) [Compound 9] | UniProt:P25090 | label 0 |
| O=C(CN1C(=O)C2C(C1=O)C1CCC2C12CC2)Nc1ccc(I)cc1 (centres unmarked) [Compound 5] | UniProt:P25090 | label 0 |
| CSc1ccc(NC(=O)CN2C(=O)C3C(C2=O)C2CCC3C23CC3)cc1 (centres unmarked) [Compound 2] | UniProt:P25090 | label 1 |
| CCc1ccc(NC(=O)CN2C(=O)C3C(C2=O)C2CCC3C23CC3)cc1 (centres unmarked) [Compound 6] | UniProt:P25090 | label 1 |
| O=C(CN1C(=O)C2C(C1=O)C1CCC2C12CC2)Nc1ccc(Cl)nc1 (centres unmarked) [Compound 8] | UniProt:P25090 | label 0 |
| CS(=O)(=O)c1ccc(NC(=O)CN2C(=O)C3C(C2=O)C2CCC3C23CC3)cc1 (centres unmarked) [Compound 4] | UniProt:P25090 | label 0 |
| O=C(CN1C(=O)C2C3C=CC(C3)C2C1=O)Nc1ccc(Br)cc1 (centres unmarked) [reference compound] | UniProt:P25090 | label 1 |
| O=C(CN1C(=O)C2CC=CCC2C1=O)Nc1ccc(Br)cc1 (centres unmarked) [reference compound] | UniProt:P25090 | label 1 |
| COc1ccc(NC(=O)CN2C(=O)C3C(C2=O)C2CCC3C23CC3)cc1 (centres unmarked) [Compound 10] | UniProt:P25090 | label 1 |
| CC(C(=O)Nc1ccc(Br)cc1)N1C(=O)C2C(C1=O)C1CCC2C12CC2 (centres unmarked) [Compound 11] | UniProt:P25090 | label 0 |
